Measured activation at 0.01 µM of individual entries
- test_system: 5-HT2B receptor (Homo sapiens, UniProt P41595)
- Construct: host or cells: CHO-K1
- Sequence (P41595 whole entry): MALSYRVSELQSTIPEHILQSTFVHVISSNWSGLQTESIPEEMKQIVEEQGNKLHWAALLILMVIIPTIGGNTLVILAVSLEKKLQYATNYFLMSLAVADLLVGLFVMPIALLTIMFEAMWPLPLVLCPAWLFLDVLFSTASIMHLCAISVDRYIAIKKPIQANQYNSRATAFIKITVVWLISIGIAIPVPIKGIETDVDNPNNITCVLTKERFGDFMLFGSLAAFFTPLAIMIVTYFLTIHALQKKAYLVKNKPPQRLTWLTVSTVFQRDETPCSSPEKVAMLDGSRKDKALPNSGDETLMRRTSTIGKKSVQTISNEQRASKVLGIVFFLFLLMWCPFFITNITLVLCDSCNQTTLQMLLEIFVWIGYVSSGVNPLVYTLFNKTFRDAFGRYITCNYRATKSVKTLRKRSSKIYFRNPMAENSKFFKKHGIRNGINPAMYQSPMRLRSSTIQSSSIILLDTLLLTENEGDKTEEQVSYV
- assay_info: 5-HT2B receptor agonism, IP-1 accumulation in CHO-K1 cells without prior 5-HT stimulation
- Type: cell-based
- condition_details: 0.01 uM, % of IP-1 accumulation induced by 5-HT (1 uM)
Please state the figure in %; there is no need to write the unit.

See these solved cases before continuing.
molecule="C[C@@H]1CN(C(=N)N)N=C1c1cccc(Cl)c1O (single isomer, unassigned) [Example 73]" value=3
molecule="C[C@@H]1CN(C(=N)N)N=C1c1ccccc1O (single isomer, unassigned) [Example 38]" value=-2
molecule="N=C(NCc1ccccc1)N1CCC(c2ccccc2Cl)=N1 [Example 21]" value=-5

Req: Return activation at 0.01 µM (reported value) for this molecule: N=C(N)N1CCC(c2cccc3ccccc23)=N1 [Example 9]
Resp: -8

Req: Return activation at 0.01 µM (reported value) for this molecule: CC1CN(C(=N)N)N=C1c1ccccc1O.Cl (stereo not drawn) [Example 17]
Resp: 3

Req: Return activation at 0.01 µM (reported value) for this molecule: Cl.N=C(N)N1CCC(c2ccccc2O)=N1 [Example 3]
Resp: 1

Req: Return activation at 0.01 µM (reported value) for this molecule: N=C(NCc1ccccc1)N1CCC(c2ccccc2O)=N1 [Example 22]
Resp: -10

Req: Return activation at 0.01 µM (reported value) for this molecule: C[C@@H]1CN(C(=N)NCc2ccccc2)N=C1c1cccc(Cl)c1O (single isomer, unassigned) [Example 76]
Resp: 3

Req: Return activation at 0.01 µM (reported value) for this molecule: COc1ccccc1C1=NN(C(=N)N)CC1 [Example 1]
Resp: -1

Values compiled from patent US10544103B2.
